assay: Compound was tested for inhibition against UDP-N-acetylmuramoyl-L-alanyl-D-glutamate synthetase; design: species or system Escherichia coli
READOUT NAME: IC50 (nM)

CC(=O)NC1C(OP(=O)(O)O)OC2COC(c3ccccc3)OC2C1O[C@H](C)C(=O)N[C@@H](C)P(=O)(O)CC(CCC(=O)O)C(=O)O (stereo partly specified) : 455
CC(=O)NC1C(OP(=O)(O)O)OC(CO)C(O)C1O[C@H](C)C(=O)N[C@@H](C)P(=O)(O)CC(CCC(=O)O)C(=O)O (stereo partly specified) : 20

1: CC(=O)NC1C(O)OC(CO)C(O)C1O[C@H](C)C(=O)N[C@@H](C)P(=O)(O)CC(CCC(=O)O)C(=O)O (stereo partly specified)
2: CC(NC(=O)CCCCCOP(=O)(O)O)P(=O)(O)CC(CCC(=O)O)C(=O)O (stereo unspecified)
3: CC(NC(=O)CCCCCOP(=O)(O)OP(=O)(O)OC[C@H]1O[C@@H](n2ccc(=O)[nH]c2=O)[C@H](O)[C@@H]1O)P(=O)(O)CC(CCC(=O)O)C(=O)O (stereo partly specified)
Hello, I need these entries ordered by IC50, highest reading first. Thanks! Please respond by ranking the labels in the order requested. 1, 2, 3
(1: 782000 nM, 2: 29000 nM, 3: 680 nM)

Where do the numbers come from? From ChEMBL document CHEMBL1130859.
